Quick reference: optical density of the listed items.
molecular target: T1, Goat anti-Human Kappa; test: ELISA, positive control; also: test concentration or dose not given here
T1 construct: Positive control of the ELISA; also called biotinylated goat anti-human kappa light chain

[
  {
    "BINDER": "368_E04 (antibody, V domains shown) VH: EVQLLESGGGLVQPGGSLRLSCAASGFTFSSYSMNWVRQAPGKGLEWVANINYNSGYTGYADSVKGRFTISRDNSKNTLYLQMNSLRAEDTAVYYCARSANWHDTALDYWGQGTLVTVSS VL: DIQMTQSPSSLSASVGDRVTITCRASQSILSYVNWYQQKPGKAPKLLIYAATSRHSGVPSRFSGSGSGTDFTLTISSLQPEDFATYYCQQSYDNPLTFGGGTKVEIK",
    "optical density [OD]": 3.48
  },
  {
    "BINDER": "367_F07 (antibody, V domains shown) VH: EVQLLESGGGLVQPGGSLRLSCAASGFTFDSYGMHWVRQAPGKGLEWVANINYNGGYTGYADSVKGRFTISRDNSKNTLYLQMNSLRAEDTAVYYCARSANWHDTALDYWGQGTLVTVSS VL: DIQMTQSPSSLSASVGDRVTITCRASQSIISYVNWYQQKPGKAPKLLIYAATSRASGVPSRFSGSGSGTDFTLTISSLQPEDFATYYCQQSYETPLTFGGGTKVEIK",
    "optical density [OD]": 3.26
  },
  {
    "BINDER": "374_B06 (antibody, V domains shown) VH: EVQLLESGGGLVQPGGSLRLSCAASGFTFDSYSMNWVRQAPGKGLEWVAGINYNSGYKGYADSVKGRFTISRDNSKNTLYLQMNSLRAEDTAVYYCARSANWHDTHLDYWGQGTLVTVSS VL: DIQMTQSPSSLSASVGDRVTITCRASQSILTYVNWYQQKPGKAPKLLIYAATSRASGVPSRFSGSGSGTDFTLTISSLQPEDFATYYCQQSYDTPLTFGGGTKVEIK",
    "optical density [OD]": 3.08
  }
]
